- assayExplanation: Toxicokinetic analysis in rat plasma (Example 5)
- Format: in vivo
- conditionLabel: female, rat, plasma, po, 50 mg/kg/day
recordedEndpoint: Cmax

Incoming: Need Cmax, item `CC(C)NC(=O)COc1cccc(-c2nc(Nc3ccc4[nH]ncc4c3)c3ccccc3n2)c1`
Outgoing: 4.54 µg/mL

====

- assayExplanation: Toxicokinetic analysis in rat plasma (Example 5)
- Format: in vivo
- conditionLabel: female, Sprague-Dawley, rat, plasma, oral, 150 mg base/kg
recordedEndpoint: Cmax (ng/mL)
# number only, unit ng/mL dropped from output

Incoming: Need Cmax, item CC(C)NC(=O)COc1cccc(-c2nc(Nc3ccc4[nH]ncc4c3)c3ccccc3n2)c1 [belumosudil]
Outgoing: 9860

====

- assayExplanation: Toxicokinetic evaluation in pregnant rats (Example 3)
- Assay type: in vivo, rat
- conditionLabel: female, Sprague-Dawley, rat, plasma, po, 15 mg/kg/day, GD 6, belumosudil 15 mg base/kg oral
- Description: Animals received in-life and postmorten evaluations.
recordedEndpoint: Cmax (ng/mL)
# number only, unit ng/mL dropped from output

Incoming: Need Cmax, item CC(C)NC(=O)COc1cccc(-c2nc(Nc3ccc4[nH]ncc4c3)c3ccccc3n2)c1 [belumosudil]
Outgoing: 1530

====

- assayExplanation: Toxicokinetics in pregnant New Zealand White rabbits (Example 2)
- Type: in vivo, rabbit
- conditionLabel: female, New Zealand White, rabbit, in vivo, po, 50 mg/kg/day; read-out: maternal AUC0-24
recordedEndpoint: AUC(0-t) (ng·h/mL)
# number only, unit ng·h/mL dropped from output

Incoming: Need AUC(0-t), item `CC(C)NC(=O)COc1cccc(-c2nc(Nc3ccc4[nH]ncc4c3)c3ccccc3n2)c1`
Outgoing: 2480

====

- assayExplanation: Toxicokinetic evaluation in pregnant rabbits (Example 4)
- Assay type: in vivo, rabbit
- conditionLabel: female, New Zealand White, rabbit, plasma, po, 125 mg/kg/day, GD 6, belumosudil 125 mg base/kg oral; read-out: Mean AUC0-24 in plasma of pregnant rabbits
recordedEndpoint: AUC(0-t) (ng·h/mL)
# number only, unit ng·h/mL dropped from output

Incoming: Need AUC(0-t), item `CC(C)NC(=O)COc1cccc(-c2nc(Nc3ccc4[nH]ncc4c3)c3ccccc3n2)c1`
Outgoing: 21400

====

- assayExplanation: Toxicokinetic evaluation in pregnant rats (Example 3)
- Format: in vivo, rat
- conditionLabel: female, Sprague-Dawley, rat, plasma, po, 50 mg/kg/day, GD 6, belumosudil 50 mg base/kg oral; read-out: Mean AUC0-24 in plasma of pregnant rats
recordedEndpoint: AUC(0-t) (ng·h/mL)
# number only, unit ng·h/mL dropped from output

Incoming: Need AUC(0-t), item CC(C)NC(=O)COc1cccc(-c2nc(Nc3ccc4[nH]ncc4c3)c3ccccc3n2)c1 [belumosudil]
Outgoing: 37700

====

- assayExplanation: Toxicokinetic evaluation in pregnant rabbits (Example 4)
- Assay type: in vivo, rabbit
- conditionLabel: female, New Zealand White, rabbit, plasma, po, 50 mg base/kg, GD 18, belumosudil 50 mg base/kg oral; read-out: Mean AUC0-24 in plasma of pregnant rabbits
recordedEndpoint: AUC(0-t) (ng·h/mL)
# number only, unit ng·h/mL dropped from output

Incoming: Need AUC(0-t), item CC(C)NC(=O)COc1cccc(-c2nc(Nc3ccc4[nH]ncc4c3)c3ccccc3n2)c1 [belumosudil]
Outgoing: 1590

====

- assayExplanation: Toxicokinetic analysis in rat plasma (Example 5)
- Format: in vivo
- conditionLabel: female, Sprague-Dawley, rat, plasma, po, 50 mg/kg/day; 50 mg base/kg/day, females; read-out: AUC0-24
recordedEndpoint: AUC(0-t) (ng·h/mL)
# number only, unit ng·h/mL dropped from output

Incoming: Need AUC(0-t), item `CC(C)NC(=O)COc1cccc(-c2nc(Nc3ccc4[nH]ncc4c3)c3ccccc3n2)c1`
Outgoing: 26200
